- tested_on: T1, Pot1-DBD_D64A (Schizosaccharomyces pombe, UniProt O13988 1-389, D64A)
- T1 sequence: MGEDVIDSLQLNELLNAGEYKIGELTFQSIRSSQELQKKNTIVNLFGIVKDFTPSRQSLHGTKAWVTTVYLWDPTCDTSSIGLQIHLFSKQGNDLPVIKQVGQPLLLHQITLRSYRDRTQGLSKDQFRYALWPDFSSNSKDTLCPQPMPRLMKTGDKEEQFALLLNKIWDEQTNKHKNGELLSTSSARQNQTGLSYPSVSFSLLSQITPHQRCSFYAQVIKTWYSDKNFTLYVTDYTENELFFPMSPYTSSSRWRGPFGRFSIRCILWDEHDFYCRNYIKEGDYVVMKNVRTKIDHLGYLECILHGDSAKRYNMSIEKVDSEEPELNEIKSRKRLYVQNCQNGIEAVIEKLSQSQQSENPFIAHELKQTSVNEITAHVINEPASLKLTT
- assay_remarks: EMSA
assay_readout: pKd
In textbook form, pKd equals minus log to base ten of the concentration in mol/L.

>>> value_measured("GGTTACGGTTAC (ssDNA) [12mer]")
8.47

# next binder below
Report pKd for GGTTACGGTTACGGT (ssDNA) [15mer] please.
10.74
